System: MiaPaCa2 cells
Assay: Inhibition of pancreatic cancer cell growth
Format: cell-based, human
Settings: 5 days incubation, read-out: IC50 (antiproliferative, cell count)
Assay Readout: IC50 (nM)
// units = nM; emit number, no label

Problem: State the measured IC50 (MiaPaCa2 cells) of "O=[N+]([O-])C1=CN(CCCCCCCCCC[P+](c2ccccc2)(c2ccccc2)c2ccccc2)C=CC1"
Solution: 1200
